Items are presented alongside their recorded %Inh.
tested on: NDR2; details: concentration: 1 μM, replicates: in singlicate; n = 1;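 also: KINOMEscan kinase panel screen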
measurement.kind: %Inh

1. Fc1ccc(Nc2nccc(-c3c(-c4ccc(Cl)cc4)nn4ncccc34)n2)cc1F | 28%
2. O=C(Nc1ccccc1F)NC1CCN(c2ccnc(Nc3ccc(F)cc3)n2)C1 (centres unmarked) | 0%
3. C[C@H]1CC[C@@H](C(=O)Nc2ccccc2)CN1c1cc(-c2ccc3c(N)n[nH]c3c2)nc(N)n1 | 0%
4. OCCOCCn1ccc2ncnc(Nc3ccc(Oc4cccc(Cl)c4)c(Cl)c3)c21 | 0%
5. Cc1cccc(-c2nc(Nc3ccc4[nH]nnc4c3)c3ccccc3n2)n1 | 6%
6. CN1c2ccc(-c3ccc(C(=O)NCCO)cc3)cc2-c2[nH]ncc2S1(=O)=O | 0%
7. COc1ccc(NC(=O)Nc2ccc(C)c(-c3ccc(C(=O)Nc4ccncc4)cc3)c2)cc1 | 0%
8. Fc1cccc(COc2ccc(Nc3ncnc4nn5ccccc5c34)cc2Cl)c1 | 0%
9. Cl.O=S(=O)(c1cccc(F)c1)c1ccc(Nc2ncnc3cc(Br)sc23)cc1Cl | 1%
10. Nc1nc(-c2ccc3c(N)n[nH]c3c2)cc(N2CCC[C@@H](C(=O)Nc3ccccc3)C2)n1.O=C(O)C(F)(F)F.O=C(O)C(F)(F)F | 5%
11. COC(=O)c1c(-c2ccccc2)c2cc(Cl)ccc2c(=O)n1Cc1ccc(S(C)(=O)=O)cc1 | 0%
12. COc1cc2ncnc(Nc3ccc(OCc4ccccc4Br)c(Cl)c3)c2cc1OC.Cl | 0%
13. CC(C)(C)OC(=O)NC1CCCN(c2cc(-c3ccc4c(N)n[nH]c4c3)nc(N)n2)C1 (centres unmarked) | 0%
14. CS(=O)(=O)CCNCc1ccc(-c2ccc3ncnc(Nc4ccc(OCc5ccccc5)c(Cl)c4)c3c2)o1.Cl | 0%
15. Cn1ccc2ncnc(Oc3ccc(NC(=O)Nc4cccnc4)c(Cl)c3)c21 | 14%
16. Nc1nc(-c2cccnc2)c(-c2ccnc3ccccc23)s1 | 11%
17. COc1ccc(Nc2nccc(N3CCC(NC(=O)c4cccc(NC(C)=O)c4)C3)n2)cc1 (centres unmarked) | 10%
